Test system 5-hydroxytryptamine receptor 1A (Rattus norvegicus), Ki listed for each of the molecules.
Please make sure the unit comes right after the number.

Query: Observed Ki on 5-hydroxytryptamine receptor 1A (Rattus norvegicus) for COc1ccc(C2CCC(N3CCN(c4ccccn4)CC3)CC2)cc1 (trans isomer) , please.
Sequence (P19327 whole entry): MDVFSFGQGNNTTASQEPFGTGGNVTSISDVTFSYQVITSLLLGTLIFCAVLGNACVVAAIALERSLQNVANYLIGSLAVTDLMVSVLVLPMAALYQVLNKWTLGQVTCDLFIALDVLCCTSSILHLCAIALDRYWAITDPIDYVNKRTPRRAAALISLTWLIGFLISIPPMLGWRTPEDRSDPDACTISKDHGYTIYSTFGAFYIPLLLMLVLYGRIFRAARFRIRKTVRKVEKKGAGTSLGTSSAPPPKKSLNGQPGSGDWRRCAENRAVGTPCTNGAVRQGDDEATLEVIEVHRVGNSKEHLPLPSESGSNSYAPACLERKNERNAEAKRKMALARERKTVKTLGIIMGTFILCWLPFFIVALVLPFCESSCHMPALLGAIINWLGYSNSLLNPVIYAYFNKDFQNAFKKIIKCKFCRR
Response: 0.046 nM

Query: Observed Ki on 5-hydroxytryptamine receptor 1A (Rattus norvegicus) for COc1cccc2c1CCCC2CCCNCCOc1ccccn1 (stereo not given) , please.
Response: 0.54 nM

Query: Observed Ki on 5-hydroxytryptamine receptor 1A (Rattus norvegicus) for `COc1cccc2c1CCC/C2=C\CCNCCOc1ccccn1` , please.
Response: 0.71 nM

Query: Observed Ki on 5-hydroxytryptamine receptor 1A (Rattus norvegicus) for COc1cccc(C2=CCC(N3CCN(c4ccccc4OC)CC3)CC2)c1 (stereo not given) , please.
Response: 7.1 nM

Query: Observed Ki on 5-hydroxytryptamine receptor 1A (Rattus norvegicus) for `COc1cccc(CCCCN2CCN(c3ccccn3)CC2)c1` , please.
Response: 23 nM

Query: Observed Ki on 5-hydroxytryptamine receptor 1A (Rattus norvegicus) for COc1cccc(C2CCC(N3CCN(c4cccc5ccccc45)CC3)CC2)c1 (stereo in doubt) , please.
Response: 74 nM

Query: Observed Ki on 5-hydroxytryptamine receptor 1A (Rattus norvegicus) for COc1ccc2c(c1)CCC(CNCCOc1ccccn1)C2 (stereo not given) , please.
Response: 59 nM

Query: Observed Ki on 5-hydroxytryptamine receptor 1A (Rattus norvegicus) for COc1cccc(C2CCC(N3CCN(c4ccccc4)CC3)CC2)c1 (stereo in doubt; trans) , please.
Response: 0.026 nM

Query: Observed Ki on 5-hydroxytryptamine receptor 1A (Rattus norvegicus) for COc1ccc2c(c1)CC(CCN1CCN(c3ccccn3)CC1)CC2 (stereo not given) , please.
Response: 0.16 nM

Query: Observed Ki on 5-hydroxytryptamine receptor 1A (Rattus norvegicus) for COc1ccccc1C1CCC(N2CCN(c3ccccn3)CC2)CC1 (stereo in doubt; trans) , please.
Response: 0.2 nM

---

Provide the reported pKi of each item.
Molecular target: D(2) dopamine receptor (Rattus norvegicus, UniProt P61169)
Sequence (P61169 whole entry): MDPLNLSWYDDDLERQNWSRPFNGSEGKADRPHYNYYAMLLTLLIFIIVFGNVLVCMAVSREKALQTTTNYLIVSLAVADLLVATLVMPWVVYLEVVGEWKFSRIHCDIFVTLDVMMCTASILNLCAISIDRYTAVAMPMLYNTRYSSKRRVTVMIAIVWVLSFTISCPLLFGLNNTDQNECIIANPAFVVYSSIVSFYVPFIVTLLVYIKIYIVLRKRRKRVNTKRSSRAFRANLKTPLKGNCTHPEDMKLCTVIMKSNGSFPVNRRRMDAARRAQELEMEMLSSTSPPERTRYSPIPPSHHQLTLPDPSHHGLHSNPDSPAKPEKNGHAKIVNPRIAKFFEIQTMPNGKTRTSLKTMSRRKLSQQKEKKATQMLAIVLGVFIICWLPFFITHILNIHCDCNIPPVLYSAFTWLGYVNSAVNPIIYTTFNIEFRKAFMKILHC
Assay: Binding affinity towards dopamine receptor D2 in rat striatal membranes
Just the number, please; pKi means minus log10 of the concentration in mol/L.

Query: I'd like to know its pKi. The compound in question is COc1cccc(C2=CCC(N3CCN(c4ccccc4)CC3)CC2)c1 (stereo not drawn)
Response: 5.66

Query: I'd like to know its pKi. The compound in question is COc1ccc2c(c1)CC(CCN1CCN(c3ccccn3)CC1)CC2 (stereo not drawn)
Response: 5.76

Query: I'd like to know its pKi. The compound in question is COc1cccc2c1CCCC2CCCN1CCN(c2ccccn2)CC1 (stereo not drawn)
Response: 6.93

Query: I'd like to know its pKi. The compound in question is COc1cccc(C2CCC(N3CCN(c4ccccc4OC)CC3)CC2)c1 (stereo in doubt; cis)
Response: 6.18

Query: I'd like to know its pKi. The compound in question is COc1cccc(C2CCC(N3CCN(c4ccccc4OC)CC3)CC2)c1 (stereo in doubt; trans)
Response: 7.22

Query: I'd like to know its pKi. The compound in question is COc1cccc(C2CCC(N3CCN(c4ccccc4)CC3)CC2)c1 (stereo in doubt; cis)
Response: 5.62

Query: I'd like to know its pKi. The compound in question is `COc1cccc(CCCCN2CCN(c3ccccn3)CC2)c1`
Response: 6.12

---

Target sequence: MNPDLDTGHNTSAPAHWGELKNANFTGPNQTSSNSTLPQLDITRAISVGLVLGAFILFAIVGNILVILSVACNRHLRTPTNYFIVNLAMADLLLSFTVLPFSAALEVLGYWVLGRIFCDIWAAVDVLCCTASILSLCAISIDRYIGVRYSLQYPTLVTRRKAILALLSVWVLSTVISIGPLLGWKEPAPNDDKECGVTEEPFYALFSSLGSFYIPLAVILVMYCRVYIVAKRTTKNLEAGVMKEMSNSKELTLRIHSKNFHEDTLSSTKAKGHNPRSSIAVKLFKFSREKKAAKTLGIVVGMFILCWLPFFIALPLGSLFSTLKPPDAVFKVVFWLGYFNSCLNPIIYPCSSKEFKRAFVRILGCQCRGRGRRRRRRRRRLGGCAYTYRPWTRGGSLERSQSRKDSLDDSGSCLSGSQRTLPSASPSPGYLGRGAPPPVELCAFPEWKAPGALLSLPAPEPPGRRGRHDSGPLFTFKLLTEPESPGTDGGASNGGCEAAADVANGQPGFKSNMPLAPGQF
measure: Ki (nM)
# unit: nM | format: bare number

Query: I'd like to know its Ki. The compound in question is COc1cccc2c1CCCC2CCCN1CCN(c2ccccn2)CC1 (centres undefined)
Response: 7.88

Query: I'd like to know its Ki. The compound in question is COc1cccc(C2CCC(N3CCN(c4ccccn4)CC3)CC2)c1 (trans isomer)
Response: 53.1

Query: I'd like to know its Ki. The compound in question is `COc1cccc2c(CCCN3CCN(c4ccccn4)CC3)cccc12`
Response: 4.21

Query: I'd like to know its Ki. The compound in question is COc1cccc(C2CCC(N3CCN(c4ccccc4OC)CC3)CC2)c1 (stereo in doubt; trans)
Response: 43.3

---

Biological target: Adrenergic receptor alpha-1 (Rattus norvegicus, UniProt P15823+P23944+P43140)
Sequence (P15823 whole entry): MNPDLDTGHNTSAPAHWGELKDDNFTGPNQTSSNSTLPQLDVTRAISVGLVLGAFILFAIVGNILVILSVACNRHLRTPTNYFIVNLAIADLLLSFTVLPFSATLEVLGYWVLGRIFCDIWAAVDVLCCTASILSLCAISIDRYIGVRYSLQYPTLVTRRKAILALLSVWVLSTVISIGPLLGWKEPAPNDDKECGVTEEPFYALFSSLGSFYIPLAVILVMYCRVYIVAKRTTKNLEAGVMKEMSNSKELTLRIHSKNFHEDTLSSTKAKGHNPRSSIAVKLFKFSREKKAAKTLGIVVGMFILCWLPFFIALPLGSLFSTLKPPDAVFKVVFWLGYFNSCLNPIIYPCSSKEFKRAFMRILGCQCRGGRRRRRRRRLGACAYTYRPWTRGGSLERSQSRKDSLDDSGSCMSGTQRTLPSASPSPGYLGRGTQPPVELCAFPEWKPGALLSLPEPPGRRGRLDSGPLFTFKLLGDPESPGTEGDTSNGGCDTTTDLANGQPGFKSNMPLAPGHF
Sequence (P23944 whole entry): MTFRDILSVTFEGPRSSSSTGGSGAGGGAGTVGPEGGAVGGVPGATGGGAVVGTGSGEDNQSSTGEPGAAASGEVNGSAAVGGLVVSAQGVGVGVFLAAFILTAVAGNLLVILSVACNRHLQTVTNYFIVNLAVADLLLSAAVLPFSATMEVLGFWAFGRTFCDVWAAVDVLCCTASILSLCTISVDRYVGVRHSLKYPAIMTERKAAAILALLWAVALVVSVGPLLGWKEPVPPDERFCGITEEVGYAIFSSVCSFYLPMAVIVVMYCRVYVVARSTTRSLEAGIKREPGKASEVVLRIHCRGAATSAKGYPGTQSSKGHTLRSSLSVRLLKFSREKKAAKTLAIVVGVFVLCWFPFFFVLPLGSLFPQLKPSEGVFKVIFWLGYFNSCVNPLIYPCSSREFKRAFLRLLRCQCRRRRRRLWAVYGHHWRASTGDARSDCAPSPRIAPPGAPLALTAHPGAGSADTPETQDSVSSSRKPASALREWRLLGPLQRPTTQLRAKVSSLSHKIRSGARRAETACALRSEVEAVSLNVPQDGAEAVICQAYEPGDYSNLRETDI
Sequence (P43140 whole entry): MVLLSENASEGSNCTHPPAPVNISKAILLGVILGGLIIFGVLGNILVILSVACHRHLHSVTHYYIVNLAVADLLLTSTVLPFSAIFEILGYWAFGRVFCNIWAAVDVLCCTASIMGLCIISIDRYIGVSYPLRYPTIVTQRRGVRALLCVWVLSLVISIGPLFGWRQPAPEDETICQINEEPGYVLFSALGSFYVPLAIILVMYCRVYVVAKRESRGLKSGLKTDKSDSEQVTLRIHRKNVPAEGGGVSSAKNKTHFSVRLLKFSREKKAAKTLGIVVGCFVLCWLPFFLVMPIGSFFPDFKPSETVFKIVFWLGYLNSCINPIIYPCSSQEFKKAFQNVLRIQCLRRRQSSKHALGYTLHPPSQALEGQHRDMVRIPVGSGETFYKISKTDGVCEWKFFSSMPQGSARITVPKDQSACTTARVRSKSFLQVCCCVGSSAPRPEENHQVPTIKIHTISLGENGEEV
Experiment: Binding affinity towards alpha-1 adrenergic receptor in rat cortical membranes
Assay type: cell membranes
measure: Ki (µM)
# unit: µM | format: bare number

Query: I'd like to know its Ki. The compound in question is COc1ccccc1C1CCC(N2CCN(c3ccccn3)CC2)CC1 (stereo in doubt; cis)
Response: 0.712

Query: I'd like to know its Ki. The compound in question is COc1cccc(C2=CCC(N3CCN(c4cccc5ccccc45)CC3)CC2)c1 (configuration not stated)
Response: 0.986

Query: I'd like to know its Ki. The compound in question is COc1ccc(C2CCC(N3CCN(c4ccccn4)CC3)CC2)cc1 (stereo in doubt)
Response: 0.786

Query: I'd like to know its Ki. The compound in question is `COc1cccc2c(CCCNCCOc3ccccn3)cccc12`
Response: 1.3

These data points were gathered from ChEMBL document CHEMBL1134307.
